Biological target: huPA-H99Y-Q192A (human)
Assay: enzyme inhibition (steady state, chromogenic substrate S-2444); about 2 nM enzyme (purified or conditioned medium of transfected cells) pre-incubated 15 min with varied peptide in HBS (10 mM HEPES pH 7.4, 140 mM NaCl) with 0.1% BSA at 37°C; substrate about KM; fit for competitive inhibition; highest peptide concentration 400 µM
Bridge positions count the residues as written; N and C are the ends. Square brackets hold non-standard residues; d marks the D form. Ends that are not written are not given here. Ala(1-amidino-4-piperidyl) = N=C(N)N1CCC(C[C@H](N)C(=O)O)CC1; Phe(4-guanidino) = N=C(N)Nc1ccc(C[C@H](N)C(=O)O)cc1
readout-type: Ki (nM)
Write down the numeric answer in nM and omit the unit.

{"binder": "CPAYS[Ala(1-amidino-4-piperidyl)]YLDC (disulfide 1-10; not fully specified) [mupain-1-16]", "Ki, nM": 2710}
{"binder": "CPAYS[Ala(1-amidino-4-piperidyl)]YLAC (disulfide 1-10; not fully specified) [Mupain-1-16 D9A]", "Ki, nM": 438}

// below: Ki requested for another binder
Requested read-out: Ki. Entry: CPAYS[Phe(4-guanidino)]YLDC (disulfide 1-10) [mupain-1-12]
2350
